System: HCI13 (cells of an ER-positive luminal breast cancer xenograft)
test name: cell viability (% of vehicle); higher = less cytotoxic
assay conditions: 10 µM; 72 h
// boundary case: cell viability equal to 100 maps to 0.0; strictly smaller maps to 1.0

[[record]]
compound = "CC(=O)[C@@]1(O)CC[C@H]2[C@@H]3CCC4=CC(=O)CCC4=C3[C@@H](c3ccc(N(C)C)cc3)C[C@@]21C"
cat = 0.0

[[record]]
compound = "CC1OC(OCC2OC(Oc3c(-c4ccc(O)c(O)c4)oc4cc(O)cc(O)c4c3=O)C(O)C(O)C2O)C(O)C(O)C1O (stereo unspecified)"
cat = 0.0

[[record]]
compound = "COC(=O)C1=COC(O)C2C(CO)=CCC12 (stereo unspecified)"
cat = 0.0

[[record]]
compound = "CC(=O)Nc1ccccc1 [Acetanilide]"
cat = 0.0

[[record]]
compound = "Cc1ccc(-n2nc(C(C)(C)C)cc2NC(=O)Nc2ccc(OCCN3CCOCC3)c3ccccc23)cc1"
cat = 1.0

[[record]]
compound = "CCCN1CCCCC1C(=O)Nc1c(C)cccc1C.Cl (stereo unspecified) [Ropivacaine HCl]"
cat = 1.0

[[record]]
compound = "Cc1c(-c2ccccc2)oc2c(C(=O)OCCN3CCCCC3)cccc2c1=O.Cl [Flavoxate hydrochloride]"
cat = 0.0

[[record]]
compound = "Nc1ccc(S(=O)(=O)Nc2ncccn2)cc1"
cat = 0.0

[[record]]
compound = "Cc1ccc(-n2[nH]c(C)c(NN=C3C=CC=C(c4cccc(C(=O)O)c4)C3=O)c2=O)cc1C.NCCO.NCCO"
cat = 1.0

[[record]]
compound = "Nc1nc(NC2CC2)c2ncn(C3C=CC(CO)C3)c2n1 (stereo unspecified)"
cat = 0.0

[[record]]
compound = "Cc1cn(C2C=CC(CO)O2)c(=O)[nH]c1=O (stereo unspecified)"
cat = 1.0

[[record]]
compound = "Cc1onc(-c2ccccc2)c1-c1ccc(S(N)(=O)=O)cc1"
cat = 0.0

[[record]]
compound = "CC1(C)SC2C(NC(=O)Cc3ccccc3)C(=O)N2C1C(=O)[O-].[Na+] (stereo unspecified) [Penicillin G Sodium]"
cat = 1.0


----------
Parameter cell viability of combination: see the listing below.
Tested on: HCI01 (cells of a triple-negative basal-like breast cancer xenograft)
test name: cell viability of combination (% of vehicle); higher = less cytotoxic
assay conditions: 1 µM; 72 h; partner dose: 10 nM
measure name: cell viability of combination

[[record]]
compound = "COc1ccc2cc1Oc1ccc(cc1)CC1c3c(cc4c(c3Oc3cc5c(cc3OC)CCN(C)C5C2)OCO4)CCN1C (centres undefined) [Cepharanthine] + CC(C)C[C@H](NC(=O)[C@H](CCc1ccccc1)NC(=O)CN1CCOCC1)C(=O)N[C@@H](Cc1ccccc1)C(=O)N[C@@H](CC(C)C)C(=O)[C@@]1(C)CO1 [Carfilzomib]"
measured_on = "HCI01"
measured_value = 76.2

[[record]]
compound = "Nc1ccn(C2OC(CO)C(O)C2O)c(=O)n1 (centres undefined) [Cytarabine] + CC(C)C[C@H](NC(=O)[C@H](CCc1ccccc1)NC(=O)CN1CCOCC1)C(=O)N[C@@H](Cc1ccccc1)C(=O)N[C@@H](CC(C)C)C(=O)[C@@]1(C)CO1 [Carfilzomib]"
measured_on = "HCI01"
measured_value = 57.8

[[record]]
compound = "Cl.Clc1ccccc1CN1CCc2sccc2C1 [Ticlopidine HCl] + CC(C)C[C@H](NC(=O)[C@H](CCc1ccccc1)NC(=O)CN1CCOCC1)C(=O)N[C@@H](Cc1ccccc1)C(=O)N[C@@H](CC(C)C)C(=O)[C@@]1(C)CO1 [Carfilzomib]"
measured_on = "HCI01"
measured_value = 78.4

[[record]]
compound = "Cc1cccc(CN2CCN(C(c3ccccc3)c3ccc(Cl)cc3)CC2)c1.Cl.Cl (centres undefined) [Meclizine 2HCl] + CC(C)C[C@H](NC(=O)[C@H](CCc1ccccc1)NC(=O)CN1CCOCC1)C(=O)N[C@@H](Cc1ccccc1)C(=O)N[C@@H](CC(C)C)C(=O)[C@@]1(C)CO1 [Carfilzomib]"
measured_on = "HCI01"
measured_value = 105


----------
System: HCI01
test name: cell viability of combination (% of vehicle); higher = less cytotoxic
assay conditions: 1 µM; 72 h; partner dose: 10 nM
measure name: cell viability of combination

[[record]]
compound = "C=CC(=O)Nc1cc(Nc2nccc(-c3cn(C)c4ccccc34)n2)c(OC)cc1N(C)CCN(C)C + CN(C)C/C=C/C(=O)Nc1cc2c(Nc3ccc(F)c(Cl)c3)ncnc2cc1O[C@H]1CCOC1"
measure_name = "cell viability of combination"
measured_value = 40

[[record]]
compound = "CCCCCCCCc1ccc(CCC(N)(CO)CO)cc1.Cl [Fingolimod (FTY720)] + CN(C)C/C=C/C(=O)Nc1cc2c(Nc3ccc(F)c(Cl)c3)ncnc2cc1O[C@H]1CCOC1"
measure_name = "cell viability of combination"
measured_value = 53.7

[[record]]
compound = "CC(=O)C1(O)Cc2c(O)c3c(c(O)c2C(OC2CC(N)C(O)C(C)O2)C1)C(=O)c1ccccc1C3=O.Cl (stereo not given) [Idarubicin HCl] + CN(C)C/C=C/C(=O)Nc1cc2c(Nc3ccc(F)c(Cl)c3)ncnc2cc1O[C@H]1CCOC1"
measure_name = "cell viability of combination"
measured_value = 131

[[record]]
compound = "C#Cc1cccc(Nc2ncnc3cc(OCCOC)c(OCCOC)cc23)c1 [Erlotinib] + CN(C)C/C=C/C(=O)Nc1cc2c(Nc3ccc(F)c(Cl)c3)ncnc2cc1O[C@H]1CCOC1"
measure_name = "cell viability of combination"
measured_value = 41.1

[[record]]
compound = "CO[C@@]12[C@H](COC(N)=O)C3=C(C(=O)C(C)=C(N)C3=O)N1C[C@@H]1N[C@@H]12 [Mitomycin C] + CN(C)C/C=C/C(=O)Nc1cc2c(Nc3ccc(F)c(Cl)c3)ncnc2cc1O[C@H]1CCOC1"
measure_name = "cell viability of combination"
measured_value = 36


----------
System: HCI01
test name: cell viability (% of vehicle); higher = less cytotoxic
assay conditions: 10 µM; 72 h
measure name: cell viability

[[record]]
compound = "C#CCNC1CCc2ccccc21.CS(=O)(=O)O (stereo not drawn) [Rasagiline Mesylate]"
measure_name = "cell viability"
measured_value = 157

[[record]]
compound = "COC(=O)c1ccc2c(c1)NC(=O)C2=C(Nc1ccc(N(C)C(=O)CN2CCN(C)CC2)cc1)c1ccccc1"
measure_name = "cell viability"
measured_value = 70.5

[[record]]
compound = "CC(C)(Oc1ccc(CCNC(=O)c2ccc(Cl)cc2)cc1)C(=O)O [Bezafibrate]"
measure_name = "cell viability"
measured_value = 108

[[record]]
compound = "CNC(=C[N+](=O)[O-])NCCSCc1csc(CN(C)C)n1"
measure_name = "cell viability"
measured_value = 150

[[record]]
compound = "CC(=O)c1c(C)c2cnc(Nc3ccc(N4CCNCC4)cn3)nc2n(C2CCCC2)c1=O.Cl"
measure_name = "cell viability"
measured_value = 134

[[record]]
compound = "CCCCC(=O)N(Cc1ccc(-c2ccccc2-c2nn[nH]n2)cc1)C(C(=O)O)C(C)C (stereo not drawn)"
measure_name = "cell viability"
measured_value = 112

[[record]]
compound = "CCCNC(C)C(=O)Nc1ccccc1C.Cl (stereo not drawn) [Prilocaine hydrochloride]"
measure_name = "cell viability"
measured_value = 147

[[record]]
compound = "CCN(CC)CCOC(=O)C1(C2CCCCC2)CCCCC1.Cl [Dicyclomine HCl]"
measure_name = "cell viability"
measured_value = 126


----------
Parameter cell viability: see the listing below.
Test system: WHIM2 (cells of a triple-negative basal-like breast cancer xenograft)
test name: cell viability (% of vehicle); higher = less cytotoxic
assay conditions: 10 µM; 72 h
measure name: cell viability

[[record]]
compound = "CCN(CC)CC(=O)Nc1c(C)cccc1C"
measured_on = "WHIM2"
measured_value = 74.4

[[record]]
compound = "CS(=O)(=O)O.Cc1ccc(N(CC2=NCCN2)c2cccc(O)c2)cc1 [Phentolamine Mesylate]"
measured_on = "WHIM2"
measured_value = 93.5

[[record]]
compound = "NCC1OC(OC2C(CO)OC(OC3C(O)C(N)CC(N)C3OC3OC(CO)C(O)C(O)C3N)C2O)C(N)C(O)C1O.O=S(=O)(O)O (centres undefined) [Paromomycin Sulfate]"
measured_on = "WHIM2"
measured_value = 131

[[record]]
compound = "Nc1nc(NC2CC2)c2ncn(C3C=CC(CO)C3)c2n1.O=S(=O)(O)O (centres undefined) [Abacavir sulfate]"
measured_on = "WHIM2"
measured_value = 128


----------
System: WHIM2
test name: cell viability (% of vehicle); higher = less cytotoxic
assay conditions: 10 µM; 72 h
Counter-ions that a name gives are not always drawn.
measure name: cell viability

[[record]]
compound = "Cc1cccc(Nc2ccncc2S(=O)(=O)NC(=O)NC(C)C)c1 [Torsemide]"
measured_on = "WHIM2"
measured_value = 106

[[record]]
compound = "CC(NCCCc1cccc(C(F)(F)F)c1)c1cccc2ccccc12 (configuration not stated) [Cinacalcet]"
measured_on = "WHIM2"
measured_value = 34.7

[[record]]
compound = "NCCS(=O)(=O)O [Taurine]"
measured_on = "WHIM2"
measured_value = 109

[[record]]
compound = "Nc1c(CC(=O)[O-])cccc1C(=O)c1ccccc1.O.[Na+] [Amfenac Sodium Monohydrate]"
measured_on = "WHIM2"
measured_value = 82.7

[[record]]
compound = "Oc1ccc(OCc2ccccc2)cc1 [Monobenzone]"
measured_on = "WHIM2"
measured_value = 145

[[record]]
compound = "Cc1cn(-c2cc(NC(=O)c3ccc(C)c(Nc4nccc(-c5cccnc5)n4)c3)cc(C(F)(F)F)c2)cn1 [Nilotinib(AMN-107)]"
measured_on = "WHIM2"
measured_value = 69.1

[[record]]
compound = "CC1(C)SC2C(NC(=O)C(NC(=O)N3CCNC3=O)c3ccccc3)C(=O)N2C1C(=O)[O-].[Na+] (configuration not stated) [Azlocillin sodium salt]"
measured_on = "WHIM2"
measured_value = 106

[[record]]
compound = "CN1CCN(c2ccc(C(=O)/N=c3\\[nH][nH]c4ccc(Cc5cc(F)cc(F)c5)cc34)c(NC3CCOCC3)c2)CC1 [Entrectinib]"
measured_on = "WHIM2"
measured_value = 42.6

[[record]]
compound = "CC(=O)Nc1ccc(O)cc1 [Acetaminophen]"
measured_on = "WHIM2"
measured_value = 92.7

[[record]]
compound = "Cc1c(C(=O)Nc2ccc(N3CC(C)OC(C)C3)nc2)cccc1-c1ccc(OC(F)(F)F)cc1 (configuration not stated) [LDE225 (NVP-LDE225,Erismodegib)]"
measured_on = "WHIM2"
measured_value = 97.5

[[record]]
compound = "COc1ccc(-c2nc3ccc(C4=NNC(=O)CC4C)cc3[nH]2)cc1 (configuration not stated) [Pimobendan]"
measured_on = "WHIM2"
measured_value = 168

[[record]]
compound = "OC(CCCN1CCCCC1)(c1ccccc1)c1ccccc1 [Diphenidol HCl]"
measured_on = "WHIM2"
measured_value = 108

[[record]]
compound = "Cc1cccn2c(=O)c(-c3nnn[n-]3)cnc12.[K+] [Pemirolast potassium]"
measured_on = "WHIM2"
measured_value = 113

[[record]]
compound = "CNCCC(Oc1cccc2ccccc12)c1cccs1.Cl (configuration not stated) [Duloxetine HCl]"
measured_on = "WHIM2"
measured_value = 38.5

[[record]]
compound = "CC(C)n1c(C=CC(O)CC(O)CC(=O)O)c(-c2ccc(F)cc2)c2ccccc21 (configuration not stated) [Fluvastatin]"
measured_on = "WHIM2"
measured_value = 48.9

[[record]]
compound = "CCCCCCCCCCCC1=C(O)C(=O)C=C(O)C1=O [Embelin]"
measured_on = "WHIM2"
measured_value = 77.1

[[record]]
compound = "Nc1ncnc2c1ncn2C1OC(CO)C(O)C1O (configuration not stated) [Vidarabine]"
measured_on = "WHIM2"
measured_value = 105

